system: NCI/ADR-RES ovarian; experiment: NCI-60 one-dose screen, 48 h; conditions: 10 µM unless noted
About 83,000 compounds went through this panel and 20% of them were active in at least one assay; those are over-represented in the sample as a whole. Calls of active or inactive are those of the source. Rule for the calls: active = growth percent below 10; inactive = the rest.
Choose one outcome from this list and give only that: active, inactive

IN: Per the assay record, what outcome was assigned to COc1ccc(-c2nc(SCC(C)C)nc(Nc3ccc(C(=O)O)cc3)c2C#N)cc1 ?
OUT: inactive

IN: Per the assay record, what outcome was assigned to COc1cc2ncnc(Nc3ccc4c(cnn4C(=O)Nc4ccccc4)c3)c2cc1OC ?
OUT: inactive

IN: Per the assay record, what outcome was assigned to C#CCCCCCCC[C@@H]1OC(=O)[C@H]([C@@H](C)CC)NC(=O)[C@H]([C@@H](C)CC)NC(=O)CC(=O)[C@@H]1C ?
OUT: inactive

IN: Per the assay record, what outcome was assigned to CCC(CCCN1C(=O)c2ccccc2C1=O)Nc1cc(OC)cc2c(C)ccnc12 (centres undefined) ?
OUT: inactive

IN: Per the assay record, what outcome was assigned to COc1ccc2cnc(N)c(C#Cc3cc(C(=O)Nc4ccc(CN5CCN(C)CC5)c(C(F)(F)F)c4)cnc3C)c2c1 ?
OUT: inactive

IN: Per the assay record, what outcome was assigned to Clc1ccc(I)c2ccccc12 ?
OUT: inactive

IN: Per the assay record, what outcome was assigned to CCOC(=O)c1c2c(cn1Cc1ccccc1)-c1oncc1CC2 ?
OUT: inactive

IN: Per the assay record, what outcome was assigned to COCC(=O)NNc1[nH]c(-c2ccc(OC)cc2)cc1C#N ?
OUT: inactive

IN: Per the assay record, what outcome was assigned to Nc1nc2c(c3ncncc13)C(c1cccc(C(F)(F)F)c1)Cc1ncncc1-2 (centres undefined) ?
OUT: inactive

IN: Per the assay record, what outcome was assigned to COC(=O)[C@H](Cc1cn(C)cn1)NC(=O)[C@@H](NC(=O)Nc1cc(C(F)(F)F)cc(C(F)(F)F)c1)C(C)(C)C ?
OUT: inactive

IN: Per the assay record, what outcome was assigned to COC(=O)c1cc(Nc2ccc(O)c3c2C(=O)c2c([N+](=O)[O-])ccc(O)c2C3=O)cc(C(=O)OC)c1 ?
OUT: inactive

IN: Per the assay record, what outcome was assigned to O=C1/C(=N\c2cc(=O)[nH]n2S(=O)(=O)c2ccccc2)Nc2ccccc21 ?
OUT: inactive

IN: Per the assay record, what outcome was assigned to CCCCCCCCCCCCCCCCNC(=O)Nc1ccc(C)c(NC(=O)NCCCCCCCCCCCCCCCC)c1 ?
OUT: inactive

IN: Per the assay record, what outcome was assigned to COc1ccc2c(c1)/C(=C1/S/C(=N/c3nnc(C)s3)NC1=O)C(=O)N2Cc1ccc(Br)cc1 ?
OUT: inactive

IN: Per the assay record, what outcome was assigned to CCn1cnc(C[C@H](NC(=O)[C@@H](NC(=O)Nc2cc(C(F)(F)F)cc(C(F)(F)F)c2)C(C)(C)C)C(=O)OC)c1 ?
OUT: active

IN: Per the assay record, what outcome was assigned to O=C1C(=O)c2ccccc2C(O)=C1CCCc1ccc(Oc2ccccc2)cc1 ?
OUT: inactive

IN: Per the assay record, what outcome was assigned to O=C(/C=C1\C(=O)N(Cc2ccc([N+](=O)[O-])cc2)c2ccccc21)c1ccc(OCCN2CCCC2)cc1 ?
OUT: inactive

IN: Per the assay record, what outcome was assigned to CC(=O)N1CCN(CCNC(=O)n2cc(-c3ccncc3)c(-c3cc(O)cc(Cl)c3)n2)CC1 ?
OUT: inactive

IN: Per the assay record, what outcome was assigned to Cc1nn(-c2ccccc2)c(N)c1N=C1NC(=O)/C(=C/c2ccc(Cl)cc2)S1 ?
OUT: inactive
